This collection of values is drawn from ChEMBL document CHEMBL1155969.

experimental protocol: Solubility in potassium phosphate buffer at pH 7.4
Format: physicochemical
experimental endpoint: solubility (µM)

CN(C(=O)c1ccc(F)cc1)c1nc(-c2cc(N)ncn2)cs1 : 1.6

P: CC(C)Nc1cc(-c2csc(N(C)C(=O)c3ccc(F)cc3)n2)ncn1
Q: CN(C(=O)c1ccc(F)cc1)c1nc(-c2cncnc2)cs1
R: CNc1cc(-c2csc(N(C)C(=O)c3ccc(F)cc3)n2)ncn1
S: CCNc1cc(-c2csc(N(C)C(=O)c3ccc(F)cc3)n2)ncn1
Exercise: Sort these compounds on solubility so the largest reading comes first. Please list the labels according to the requested order.
Key: P, Q, R, S
(P: 45 µM, Q: 11.5 µM, R: 4.5 µM, S: 1.3 µM)
